experiment: Selectivity index, ratio of GI90 for human MCF7 cells to MIC90 for dormant state of dormant state of Mycobacterium bovis BCG; assay type: toxicity; settings: read-out: Selectivity Index
QUANTITY_KIND: selectivity ratio

{"SMILES_CODE": "O=C1/C(=C/c2cc3cc(F)ccc3nc2Cl)CNC/C1=C\\c1cc2cc(F)ccc2nc1Cl", "QUANTITY_KIND": "selectivity ratio", "OBSERVED_MEASUREMENT": "> 10"}
{"SMILES_CODE": "COc1ccc2cc(/C=C3\\CNC/C(=C\\c4cc5ccc(OC)cc5nc4Cl)C3=O)c(Cl)nc2c1", "QUANTITY_KIND": "selectivity ratio", "OBSERVED_MEASUREMENT": "> 37"}
{"SMILES_CODE": "COc1ccc2cc(/C=C3\\CN(C)C/C(=C\\c4cc5ccc(OC)cc5nc4Cl)C3=O)c(Cl)nc2c1", "QUANTITY_KIND": "selectivity ratio", "OBSERVED_MEASUREMENT": "> 10"}
{"SMILES_CODE": "CO[C@H]1/C=C/O[C@@]2(C)Oc3c(C)c(O)c4c(O)c(c(/C=N/N5CCN(C)CC5)c(O)c4c3C2=O)NC(=O)/C(C)=C\\C=C\\[C@H](C)[C@H](O)[C@@H](C)[C@@H](O)[C@@H](C)[C@H](OC(C)=O)[C@@H]1C", "QUANTITY_KIND": "selectivity ratio", "OBSERVED_MEASUREMENT": "> 123"}

We now examine a further compound.
Write down selectivity ratio measured for item CN1C/C(=C\c2cc3ccccc3nc2Cl)C(=O)/C(=C/c2cc3ccccc3nc2Cl)C1
> 13
